Target: T1, rat PAI-1 (rat, UniProt P20961 24-402)
T1 sequence: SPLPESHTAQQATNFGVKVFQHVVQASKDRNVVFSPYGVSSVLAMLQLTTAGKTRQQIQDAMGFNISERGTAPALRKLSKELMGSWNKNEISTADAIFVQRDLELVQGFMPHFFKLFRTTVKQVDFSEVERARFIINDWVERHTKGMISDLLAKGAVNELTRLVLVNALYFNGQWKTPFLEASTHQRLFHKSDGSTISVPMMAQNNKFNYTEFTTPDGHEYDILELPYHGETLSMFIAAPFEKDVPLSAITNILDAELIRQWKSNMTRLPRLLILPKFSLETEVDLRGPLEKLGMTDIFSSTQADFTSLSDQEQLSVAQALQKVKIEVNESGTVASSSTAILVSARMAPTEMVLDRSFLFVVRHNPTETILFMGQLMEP
Assay: cell-based or functional assay
Field: IC50 HT-1080 Exo PAI-1. Provide a value for each of the binders that follow.
Value expressed in nM; do not type the unit.

Prompt: Dear colleague, I am looking for the recorded IC50 HT-1080 Exo PAI-1 of the following binder: Antibody 20, scFv (scFv, V domains shown) VH: QVQLQQSGAEVKKPGSSVKVSCKASGGTFSSYAISWVRQAPGQGLEWMGGIIPTFGTANYAQKFQGRVTITADESTSTAYMELSSLRSEDTAVYYCAREKRQWLEGHFDYWGRGTLVTVSS VL: DIQMTQSPSTLSASVGDRVTITCRASEGIYHELAWYQQKPGKAPKLLIYRASSLASGVPSRFSGSRSGTEFTLTISSLQPDDFATYYCQQYSDYPLTFGGGTKVEIK
Response: 42.4

Prompt: Dear colleague, I am looking for the recorded IC50 HT-1080 Exo PAI-1 of the following binder: Antibody 20, IgG1, not germlined (antibody, V domains shown, whole IgG1; also called Ab 20) VH: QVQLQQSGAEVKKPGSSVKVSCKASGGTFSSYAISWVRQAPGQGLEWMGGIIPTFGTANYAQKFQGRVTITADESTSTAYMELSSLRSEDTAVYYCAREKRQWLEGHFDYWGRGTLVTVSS VL: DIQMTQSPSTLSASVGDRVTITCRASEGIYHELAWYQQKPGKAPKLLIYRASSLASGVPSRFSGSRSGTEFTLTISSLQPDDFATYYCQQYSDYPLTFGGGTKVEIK
Response: 16.2

Prompt: Dear colleague, I am looking for the recorded IC50 HT-1080 Exo PAI-1 of the following binder: Antibody 14, scFv (scFv, V domains shown) VH: QVQLQQSGAEVKKPGSSVKVSCKASGGTFSSYAISWVRQAPGQGLEWMGGIIPTFGTANYAQKFQGRVTITADESTSTAYMELSGLRSEDTAVYYCAREKRQWLEGHFDYWGRGTLVTVSS VL: DIQMTQSPSFLSASIGDRVTITCRASEGIYHNLAWYQQKPGKAPKLLIYRASSLASGAPSRFSGSGSGTDFTFTISSLQPDDFATYYCQQYSNYPLTFGGGTKLEIK
Response: 52

Prompt: Dear colleague, I am looking for the recorded IC50 HT-1080 Exo PAI-1 of the following binder: Antibody 18, scFv (scFv, V domains shown) VH: QVQLQQSGAEVKKPGSSVKVSCKASGGTFSSYAISWVRQAPGQGLEWMGGIIPTFGTANYAQKLQGRVTITADESTSTAYMELSGLRSEDTAVYYCAREKRQWLEGHFDYWGRGTPVTVSS VL: DIQMTQSPSFLSASIGDRVTITCRASEGIYHALAWYQQKPGKAPKLLIYRASSLASGAPSRFSGSGSGTDFTLTISSLQPDDFATYYCQQYSNYPLTFGGGTKLEIK
Response: 37

Prompt: Dear colleague, I am looking for the recorded IC50 HT-1080 Exo PAI-1 of the following binder: Antibody 27, scFv (scFv, V domains shown) VH: QVQLQQSGAEVKKPGSSVKVSCKASGGAFSSYAISWVRQAPGQGLEWMGGIIPTFGTANYAQKFQGRVTITADESTSTAYMELSGLRSEDTAVYYCAREKRQWLEGHFDYWGRGTPVTVSS VL: DIQMTQSPSFLSASIGDRVTITCRASEGIYHNLAWYQQKPGKAPKLLIYRASSLASGAPSRFSGSGSGTDFTLTISSLQPDDFATYYCQQYSNYPLTFGGGTKLEIK
Response: 33.8
